Each entry below carries its measured pIC50, system: RNA-directed RNA polymerase (Hepacivirus hominis).
pIC50: −log10 of the molar value.

# Compound, Study Target, Recorded Result
data = [
    ("COc1cccc(-c2nc3ncnc(O)c3nc2-c2cccc(OC)c2)c1", "RNA-directed RNA polymerase (Hepacivirus hominis)", "< 4.00"),
    ("COc1ccc(-c2nc3ncnc(O)c3nc2-c2ccc(OC)cc2)cc1", "RNA-directed RNA polymerase (Hepacivirus hominis)", "< 4.00"),
    ("O=c1[nH]cnc2nc(-c3ccccc3Cl)c(-c3ccccc3Cl)nc12", "RNA-directed RNA polymerase (Hepacivirus hominis)", "< 4.00"),
]

Return reported pIC50. Input compound: Oc1ncnc2nc(-c3ccco3)c(-c3ccco3)nc12
4.24

Return pIC50 for the following compound: CCCCCCNc1ncnc2nc(-c3ccccc3)c(-c3ccccc3)nc12
< 4.00

Give the value of pIC50 reported for the following: Fc1ccc(-c2nc3ncnc(N4CCCCC4)c3nc2-c2ccc(F)cc2)cc1
4.17

Tell us which pIC50 value is on record for O=[N+]([O-])c1ccc(-c2nc3ncnc(O)c3nc2-c2ccccc2)cc1
4.52

Determine from records and report pIC50 for Fc1ccc(CCNc2ncnc3nc(-c4ccccc4)c(-c4ccccc4)nc23)cc1
< 4.00

Please look at this compound and report its pIC50: O=c1[nH]cnc2nc3c(nc12)C1CCCCC31 (stereo unspecified)
< 4.00

# return recorded pIC50 for entry Fc1ccc(-c2nc3ncnc(NC4CCC4)c3nc2-c2ccc(F)cc2)cc1
5.68

Read off the recorded pIC50 for O=c1[nH]cnc2nc3c4ccccc4c4ccccc4c3nc12
< 4.00

* * *

Parameter pIC50: see the listing below.
# Study Target: RNA-directed RNA polymerase (Hepacivirus hominis, UniProt O39930)
# Sequence (O39930 whole entry): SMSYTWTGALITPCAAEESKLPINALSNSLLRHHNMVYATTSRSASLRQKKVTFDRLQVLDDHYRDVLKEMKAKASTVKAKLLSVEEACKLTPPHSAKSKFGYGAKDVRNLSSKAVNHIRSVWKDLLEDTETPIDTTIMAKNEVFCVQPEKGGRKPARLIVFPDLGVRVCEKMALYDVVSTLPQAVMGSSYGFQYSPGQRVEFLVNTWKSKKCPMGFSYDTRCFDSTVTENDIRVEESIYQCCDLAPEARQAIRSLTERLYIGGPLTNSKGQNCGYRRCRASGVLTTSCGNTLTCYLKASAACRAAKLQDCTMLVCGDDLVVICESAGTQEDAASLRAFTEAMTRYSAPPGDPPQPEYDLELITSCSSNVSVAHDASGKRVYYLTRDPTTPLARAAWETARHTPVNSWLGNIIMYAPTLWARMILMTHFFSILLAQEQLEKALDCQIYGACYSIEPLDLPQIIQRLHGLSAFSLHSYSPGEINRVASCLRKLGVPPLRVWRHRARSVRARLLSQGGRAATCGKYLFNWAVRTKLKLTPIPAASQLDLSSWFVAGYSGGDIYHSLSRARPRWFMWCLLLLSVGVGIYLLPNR
Bear in mind: pIC50 is minus log10 of a mol/L concentration; give just that figure.

The cases that follow already have their pIC50 on record.
# Molecule, pIC50
measured = [
    ("CCCCC(CC)CNc1ncnc2nc(-c3ccc(F)cc3)c(-c3ccc(F)cc3)nc12 (stereo not given)", 5.00),
    ("CCCC(C)Nc1ncnc2nc(-c3ccccc3)c(-c3ccccc3)nc12 (stereo not given)", 5.22),
    ("c1ccc(-c2nc3ncnc(NC4CCCCCC4)c3nc2-c2ccccc2)cc1", 4.54),
]

Consider now this further molecule.
Give pIC50 for the following molecule: COC(=O)C1CCCN1c1ncnc2nc(-c3ccc(F)cc3)c(-c3ccc(F)cc3)nc12 (stereo not given)
4.29

* * *

pIC50: −log10 of the molar value.
Assay read-out pIC50; system under study: RNA-directed RNA polymerase (Hepacivirus hominis).

Sample answers from the record:
# Compound, pIC50
measured = [
    ("CCCCCCNc1ncnc2nc(-c3ccc(F)cc3)c(-c3ccc(F)cc3)nc12", "< 4.00"),
    ("CCCCOCCCNc1ncnc2nc(-c3ccc(F)cc3)c(-c3ccc(F)cc3)nc12", 4.14),
    ("CC1CCC(Nc2ncnc3nc(-c4ccc(F)cc4)c(-c4ccc(F)cc4)nc23)CC1 (stereo unspecified)", 5.89),
    ("Cc1ccc(-c2nc3ncnc(O)c3nc2-c2ccc(C)cc2)cc1", "< 4.00"),
    ("c1ccc(-c2nc3ncnc(N4CCCCC4)c3nc2-c2ccccc2)cc1", "< 4.00"),
]

Attention now turns to another entry.
Note down pIC50 recorded for Cc1ccc(CNc2ncnc3nc(-c4ccccc4)c(-c4ccccc4)nc23)cc1
< 4.00
